// data source = paper PMC9482650

tested.target: T1, HTRA3, P83110
T1 sequence (P83110 354-453, limits assumed, looked up): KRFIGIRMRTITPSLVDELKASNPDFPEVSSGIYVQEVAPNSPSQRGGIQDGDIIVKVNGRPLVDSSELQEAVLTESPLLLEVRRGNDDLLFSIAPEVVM
assay.info: holdup assay
Set-up: key: below the threshold = too weak to quantify, mostly under pKd 3.1 to 4
condition.summary: plain residues with an end cap or a label only (N-terminal biotin on a linker: ado-ado)
attribute.measured: pKd

Sample records with pKd:
| binder | pKd |
| --- | --- |
| EPQYQPGENL [SRC, P12931] | below the threshold |
| PSVGSKKTVL [REELD1, A0A1B0GV85] | below the threshold |
| AAVENKVTDL [PLXNB1, O43157] | below the threshold |
| APIAGFSSFV [SDK2, Q58EX2] | 4.49 |
| LESTTVGTSV [KARS1, Q15046] | below the threshold |
| LKDDELKTKL [SLCO1A2, P46721] | below the threshold |
| LPAVCYDIDI [PTTG2, Q9NZH5] | 3.6 |

With those in mind, consider the next binder.
Q) Given NISYRRESAI [KCNJ4, P48050] , state its recorded pKd.
A) below the threshold
